Answer each item with its documented % Recovery of protein synthesis (1 μM test compound).
Test system: Chinese hamster ovary (CHO) cells
Experiment: Protein translation assay (puromycin labelling, western blot)
Format: cell-based
Conditions: stressed CHO cells, 300 nM Tg, 2 hours, media alone = 100%, Tg alone = 0%
Please reply with the bare figure in % and do not write the unit itself.

Which measured % Recovery of protein synthesis (1 μM test compound) value corresponds to O=C(NCC1CCN(C[C@H](O)COc2ccc(Cl)c(F)c2)C1)c1ccc2cc(Cl)ccc2n1 (some centres unmarked) [Compound 81] ?
38.7

Next up: O=C(N[C@H]1CC[C@@H](NCC(O)COc2ccc(Cl)c(F)c2)C1)c1ccc2cc(Cl)ccc2n1 (some centres unmarked) [Compound 3]
286

Next up: O=C(COc1ccc(Cl)c(F)c1)NCC1CCN(C(=O)c2cc3cc(Cl)ccc3o2)C1 (centres unmarked) [Compound 6]
0.00

Next up: O=C(COc1ccc(Cl)c(F)c1)NC1CCN(CC(O)COc2ccc(Cl)c(F)c2)C1 (centres unmarked) [Compound 99]
0.00

Next up: O=C(NCC1CCN(CC(O)COc2ccc(Cl)c(F)c2)C1)c1cc2cc(Cl)ccc2o1 (centres unmarked) [Compound 8]
31.57

Next up: O=C(COc1ccc(Cl)c(F)c1)N[C@H]1CC[C@@H](NCC(O)COc2ccc(Cl)c(F)c2)C1 (some centres unmarked) [Compound 2]
28.2

Next up: O=C(COc1ccc(Cl)c(F)c1)NCC1CCN(C(=O)c2ccc3cc(Cl)ccc3n2)C1 (centres unmarked) [Compound 5]
0.00

Next up: O=C(NC1CCC(NC[C@@H](O)COc2ccc(Cl)c(F)c2)C1)c1cc2cc(Cl)ccc2o1 (some centres unmarked) [Compound 82]
176.4
